We begin with a simple list: items and their reported melting point.

{"columns": ["smiles.text", "melting point"],
 "data": [
  ["Cn1cc(-c2ccc(C(=O)N3Cc4cccn4Cc4ccccc43)cc2)cn1", "200 to 201 °C"],
  ["O=C(c1ccc(-n2ccnc2)cc1)N1Cc2cccn2Cc2ccccc21", "171 to 172 °C"],
  ["Cc1ccn(-c2ccc(C(=O)N3Cc4ccc(Br)n4Cc4ccccc43)c(Cl)c2)n1", "148 to 149 °C (dec.)"],
  ["Cc1cnn(-c2ccc(C(=O)N3Cc4cccn4Cc4ccccc43)c(Cl)n2)c1", "155 to 156 °C"],
  ["O=C(c1ccc(-n2ccc(C(F)(F)F)n2)cc1)N1Cc2cccn2Cc2ccccc21", "166 to 167 °C"],
  ["Cc1ccn(-c2ccc(C(=O)N3Cc4cccn4Cc4ccccc43)c(Cl)n2)n1", "171 to 172 °C"],
  ["Cc1nc(-c2ccc(C(=O)N3Cc4cccn4Cc4ccccc43)cc2)n(C)n1", "193 to 195 °C"],
  ["NC(=O)c1ccc(C(=O)N2Cc3cccn3Cc3ccccc32)c(Cl)c1", "211 to 212 °C"],
  ["Cn1ncnc1-c1ccc(C(=O)N2Cc3cccn3Cc3ccccc32)cc1", "155 to 158 °C"],
  ["Cc1ccccc1C(=O)n1ccc(-c2ccc(C(=O)N3Cc4cccn4Cc4ccccc43)cc2)n1", "170 to 173 °C"],
  ["Cn1cc(-c2ccc(C(=O)N3Cc4cccn4Cc4ccccc43)cn2)cn1", "173 to 175 °C"],
  ["Cn1ccc(-c2ccc(C(=O)N3Cc4cccn4Cc4ccccc43)c(Cl)c2)n1", "148.5 to 150 °C"],
  ["CCCC(=O)n1ccc(-c2ccc(C(=O)N3Cc4cccn4Cc4ccccc43)cc2)n1", "105 to 110 °C"],
  ["Cc1cnn(-c2ccc(C(=O)N3Cc4cccn4Cc4ccccc43)cc2)c1", "179 to 181 °C"],
  ["Cc1ccn(-c2ccc(C(=O)N3Cc4ccc(C)n4Cc4ccccc43)c(Cl)c2)n1", "178 to 180 °C"],
  ["Cc1ccn(-c2ccc(C(=O)N3Cc4ccc(CN(C)C)n4Cc4ccccc43)c(Cl)c2)n1", "100 to 102 °C"]
]}

The reported numbers originate from patent US6831079B1.
